Where do the numbers come from? From paper PMC4627070.

TARGET_DESC: T1, gp32 (gene 32 protein, ssDNA-binding protein) (bacteriophage T4, UniProt P03695 1-301)
T1 sequence: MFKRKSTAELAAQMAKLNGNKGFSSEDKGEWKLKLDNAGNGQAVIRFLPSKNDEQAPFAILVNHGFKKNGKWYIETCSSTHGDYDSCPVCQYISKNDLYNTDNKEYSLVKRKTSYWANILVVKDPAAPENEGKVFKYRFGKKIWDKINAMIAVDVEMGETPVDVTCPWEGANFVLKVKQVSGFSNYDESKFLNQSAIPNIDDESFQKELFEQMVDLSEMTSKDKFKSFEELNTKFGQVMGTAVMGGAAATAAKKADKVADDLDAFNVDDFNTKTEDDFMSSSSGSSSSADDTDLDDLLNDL
ASSAY_NAME: fluorescence titration
Hi! Could you tag entries with Kd below 4 µM as 1.0, and those at or above as 0.0? Much appreciated.

*Q* Given TTTAATTT (ssDNA, 2-aminopurine at positions 4,5 (written as A)) [8P4,5] , is recorded Kd strictly lower than 4 µM?
*A* 0.0

*Q* Lab note: confirm whether the reported Kd for this binder is below 4 µM, equality not counting. binder: TTTTTAAT (ssDNA, 2-aminopurine at positions 6,7 (written as A)) [8P6,7]
*A* 0.0

*Q* Find out if reported Kd for TAATTTTT (ssDNA, 2-aminopurine at positions 2,3 (written as A)) [8P2,3] is less than 4 µM
*A* 1.0

*Q* Does AAAAAAAA (ssDNA, 2-aminopurine at positions 6,7 (written as A)) [8A6,7] have Kd strictly under 4 µM?
*A* 1.0
